// cross-source set; read-out = Ki; system = 5-hydroxytryptamine receptor 7 (Homo sapiens)
METRIC NAME: Ki (nM)

Below: 3 molecules and their reported Ki.
molecule=CC(C)c1ccccc1N1CCN(CCCCCCC(=O)N2Cc3ccccc3C[C@H]2C(=O)N2CCCCC2)CC1 metric_name=Ki reported_value=22
molecule=O=S(=O)(NC1CCN(CCOc2ccccc2-c2ccccc2)CC1)c1cccc2ncccc12 metric_name=Ki reported_value=8
molecule="CC1(c2ccc(F)cc2)NC(=O)N(CC(O)CN2CCN(C(=O)c3ccccc3)CC2)C1=O (centres undefined)" metric_name=Ki reported_value=3610

[A] CN1CCN(c2nc(N)nc(COc3ccccc3Cl)n2)CC1
[B] O=S(=O)(c1ccccc1)C1(CCN2CCC(c3ccccc3)C2)CCC1 (racemic)
[C] COc1ccc(-c2ccccc2N2CCN(CCOCCC(=O)NCc3ccncc3)CC2)cc1
[D] CCCCC(Oc1cccc(Cl)c1Cl)c1nc(N)nc(N2CCN(C)CC2)n1 (racemic)
[E] COc1ccc(N2CCN(Cc3ccccc3-c3ccccc3)CC2)cc1OC
Arrange these 5 molecules in increasing order of Ki. Labels, ranked as asked.
C, B, E, D, A
(C: 18 nM, B: 53 nM, E: 1850 nM, D: 5260 nM, A: 9250 nM)

---

// cross-source set; read-out = Ki; system = 5-hydroxytryptamine receptor 7 (Homo sapiens)
METRIC NAME: Ki (µM)

Below: 5 compounds and their reported Ki.
compound="COc1cc2ncnc(N3CCC(CN4CCN(c5ccccc5OC)CC4)C3)c2cc1OC (stereo unspecified)" metric_name=Ki measurement_unit=µM reported_value=0.0562
compound=Cc1cccc(C)c1-c1ccc2c(c1)C[C@H](N(C)C)CO2 metric_name=Ki measurement_unit=µM reported_value=0.0134
compound=O=c1[nH]c(CCCCN2CCN(c3ccc(Cl)cc3)CC2)nc2ccccc12 metric_name=Ki measurement_unit=µM reported_value=1.14
compound=O=S(=O)(NCCCCN1CCc2ccccc2C1)c1ccc2ncccc2c1 metric_name=Ki measurement_unit=µM reported_value=0.224
compound=C[C@H](Nc1cc(NCCOc2ccc(F)cc2)ncn1)c1ccccc1 metric_name=Ki measurement_unit=µM reported_value=0.005

[1] CC(Nc1nc(N)nc(NCCCc2ccccc2)n1)c1ccccc1 (racemic)
[2] COCOc1ccc(CNC(=O)CCCCCN2CCN(c3ccccc3-c3ccc(OC)cc3)CC2)cc1
[3] CC1(C)NC(=O)N(CC(O)CN2CCN(c3ccccc3C#N)CC2)C1=O (stereo unspecified)
[4] CC(C)c1nc2c(N3CCNCC3)ccnc2n1Cc1cccc(F)c1
[5] CN(C)CCSc1ncc(-c2ccccc2)s1
Order the records by Ki, with each subsequent value no larger than the one before. Labels, ranked as asked.
4, 5, 3, 1, 2
(4: 11.9 µM, 5: 3.2 µM, 3: 0.209 µM, 1: 0.06 µM, 2: 0.0065 µM)

---

pKi: −log10 of the molar value.
// cross-source set; read-out = pKi; system = 5-hydroxytryptamine receptor 7 (Homo sapiens)
METRIC NAME: pKi

Below: 2 compounds and their reported pKi.
compound="CCCCC(Oc1cc(Cl)cc(Cl)c1)c1nc(Nc2ccncc2)nc(N2CCN(C)CC2)n1 (stereo not given)" reported_value=5.29
compound=O=S(=O)(NCCCCN1CCN(c2cccc(Cl)c2)CC1)c1cccc2cccnc12 reported_value=7.60

[A] N[C@H]1CCCC[C@@H]1NC(=O)c1c2c(c3c4c(ncnc14)-c1ccccc1C3=O)N[C@@H]1CCCC[C@H]1N2
[B] CC(C)c1ccccc1OCCN1CC2CC1CN2S(=O)(=O)c1cccc(Cl)c1 (stereo not given)
[C] CN(C)CCSc1ccccc1Br
[D] O=S(=O)(NC1CCN(CCOc2ccccc2-c2ccccc2)C1)c1ccc(F)c(F)c1 (stereo not given)
[E] COc1ccccc1N1CCN(CCN(C(=O)C23CCC(CF)(CC2)CC3)c2ccccn2)CC1
Order the records by pKi, with each subsequent value no larger than the one before. Labels, ranked as asked.
D, E, B, A, C

---

pKi: −log10 of the molar value.
// cross-source set; read-out = pKi; system = 5-hydroxytryptamine receptor 7 (Homo sapiens)
METRIC NAME: pKi

Below: 10 compounds and their reported pKi.
compound=COc1ccccc1N1CCN(CCCCCn2c(=O)[nH]c3ccccc32)CC1 reported_value=7.42
compound="CC(Oc1cc(F)ccc1F)c1nc(N)nc(N2CCN(C)CC2)n1 (stereo unspecified)" reported_value=4.66
compound=Cc1ccc2c(OCCN3CCC(Cc4cccc(N5CCCS5(=O)=O)c4)CC3)cccc2n1 reported_value=7.80
compound="CC1(c2ccc(F)cc2)NC(=O)N(CC(O)CN2CCN(c3ccccc3)CC2)C1=O (stereo unspecified)" reported_value=6.65
compound="CCC1(O)c2ccccc2-c2ccc(C(=O)N=C(N)N)cc21 (stereo unspecified)" reported_value=8.92
compound="CC1(c2ccc(F)cc2)NC(=O)N(CC(O)CN2CCN(c3ccccc3F)CC2)C1=O (stereo unspecified)" reported_value=6.63
compound=COc1ccc(/C=C2\NC(=O)N(CCCCN3CCN(c4ncccn4)CC3)C2=O)cc1OC1CCCC1 reported_value=6.53
compound=O=C([C@@H]1Cc2ccccc2CN1C(=O)CCCCCCN1CCN(c2ccccc2-c2ccccc2)CC1)N1CCOCC1 reported_value=8.05
compound="O=C(Nc1ccc2cnn(S(=O)(=O)c3cccc4ccccc34)c2c1)C1CCCNC1 (racemic)" reported_value=5.24
compound="CCN(CCCCN1CCC2CCCCC2C1)S(=O)(=O)c1cnc2ccccc2c1 (stereo unspecified)" reported_value=6.73

[P] CN1CCN(c2nc(N)nc(CCCOc3ccc(Cl)cc3Cl)n2)CC1
[Q] CN(C)CCSc1nc(C(C)(C)C)cs1
[R] O=S(=O)(NC1CCN(CCOc2ccccc2-c2ccccc2)CC1)c1cncc2ccccc12
[S] O=C([C@@H]1CCCN1C(=O)CCCCN1CCN(c2ccccc2-c2ccccc2)CC1)N1CCCCC1
Arrange these 4 compounds in increasing order of pKi. Labels, ranked as asked.
P, Q, R, S
(P: 5.72, Q: 7.66, R: 8.05, S: 8.30)

---

// cross-source set; read-out = Ki; system = 5-hydroxytryptamine receptor 7 (Homo sapiens)
METRIC NAME: Ki (nM)

Below: 5 compounds and their reported Ki.
compound=Cc1cccc(S(=O)(=O)NCCN=C(N)N2CCC(c3ccccc3)CC2)c1 target_of_assay="5-hydroxytryptamine receptor 7 (Homo sapiens)" reported_value=161
compound="O=c1c(-c2ccc(Cl)cc2)c2n(c(=O)n1CCCCN1CCCC(c3c[nH]c4ccccc34)C1)CCCC2 (stereo unspecified)" target_of_assay="5-hydroxytryptamine receptor 7 (Homo sapiens)" reported_value=1380
compound=O=S(=O)(c1cncc2ccccc12)N1CCC(CCN2CCN(c3cccc(Cl)c3Cl)CC2)CC1 target_of_assay="5-hydroxytryptamine receptor 7 (Homo sapiens)" reported_value=39
compound=CCN(CCCN1CCN(c2ccccc2OC)CC1)S(=O)(=O)c1ccc2ncccc2c1 target_of_assay="5-hydroxytryptamine receptor 7 (Homo sapiens)" reported_value=29
compound=COc1cccc(OC)c1-c1ccnc(CCN(C)C)n1 target_of_assay="5-hydroxytryptamine receptor 7 (Homo sapiens)" reported_value=1480

[1] O=S(=O)(N[C@@H]1CCN(CCOc2ccccc2-c2ccccc2)C1)c1ccc(F)cc1
[2] COc1cccc(N2CCN(CC(O)CN3C(=O)NC(C)(c4ccc(F)cc4)C3=O)CC2)c1 (stereo unspecified)
[3] COc1cccc(C2=NCCc3c2[nH]c2ccccc32)c1
Order the records by Ki, with each subsequent value no larger than the one before. Labels, ranked as asked.
3, 2, 1
(3: 800 nM, 2: 89 nM, 1: 2 nM)

[1] N#Cc1ccc(N2CCC(NCCC(=O)c3csc4ccccc34)CC2)cc1
[2] C[C@H](Nc1cc(NCCOc2ccccc2)ccn1)c1ccccc1
[3] COc1cccc2c1CCN(CCCNS(=O)(=O)c1cccc3ccccc13)C2
[4] C[C@H](Nc1nc(N)nc(NCCc2ccc(F)cc2)n1)c1ccc(F)cc1
Order the records by Ki, with each subsequent value no larger than the one before. Labels, ranked as asked.
1, 3, 4, 2

[a] CN1CCN(c2nc(N)nc(CCCOc3ccc(Cl)c(Cl)c3)n2)CC1
[b] O=C(c1ccc(F)cc1)C1CCN(CCc2cccc(I)c2)CC1
Would you mind telling me which has the lower recorded Ki between a and b ? Pick one and reply with its label.
b
(b: 8.76 nM, a: 4880 nM)

[I] O=C(NC1CCN(CCOc2cccc(-c3ccccc3)c2)C1)c1cccc(F)c1 (stereo unspecified)
[II] COc1nc(NCCCN2CCOCC2)nc(OC)c1NC(=O)c1ccc(Oc2cc3c(cc2C)CCC3(C)C)o1
[III] COc1ccccc1N1CCN(CCCCC(=O)NCc2ccccc2-c2ccccc2Cl)CC1
Order the records by Ki, with each subsequent value no larger than the one before. Labels, ranked as asked.
II, I, III

---

pKi: −log10 of the molar value.
// cross-source set; read-out = pKi; system = 5-hydroxytryptamine receptor 7 (Homo sapiens, UniProt P34969)
Sequence (P34969 whole entry): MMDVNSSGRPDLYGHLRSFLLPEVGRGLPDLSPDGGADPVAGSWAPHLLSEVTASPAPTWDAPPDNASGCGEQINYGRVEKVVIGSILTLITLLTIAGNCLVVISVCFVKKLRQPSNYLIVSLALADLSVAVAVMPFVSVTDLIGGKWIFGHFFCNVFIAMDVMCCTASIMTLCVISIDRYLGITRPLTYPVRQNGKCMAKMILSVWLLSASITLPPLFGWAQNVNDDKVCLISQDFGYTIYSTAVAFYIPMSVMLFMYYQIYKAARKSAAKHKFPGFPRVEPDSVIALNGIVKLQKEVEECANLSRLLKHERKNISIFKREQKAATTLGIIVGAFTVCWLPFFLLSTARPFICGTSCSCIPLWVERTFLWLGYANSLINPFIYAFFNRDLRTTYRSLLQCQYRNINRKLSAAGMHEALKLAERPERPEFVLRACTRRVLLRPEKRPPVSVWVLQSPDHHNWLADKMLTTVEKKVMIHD
METRIC NAME: pKi

Below: 10 compounds and their reported pKi.
compound="N#Cc1ccccc1N1CCN(CCCCC23CCCc4cccc(c42)NC3=O)CC1 (stereo unspecified)" reported_value=8.42
compound=COC(=O)c1cccc(C)c1-n1ccc(CN2CCN(c3ccccc3OC)CC2)c1 reported_value=7.74
compound=O=C(/C=C/c1ccc(Cl)c(Cl)c1)NCCCCCN1CCC(c2c[nH]c3ccc(O)cc23)CC1 reported_value=7.20
compound=COc1ccccc1OCCN1CCC(NS(=O)(=O)c2ccc(F)cc2)CC1 reported_value=6.46
compound="CC1(c2ccc(F)cc2)NC(=O)N(CC(O)CN2CCC(Oc3ccc(Cl)cc3)CC2)C1=O (stereo unspecified)" reported_value=6.76
compound=COc1ccc(-c2ccccc2N2CCN(CCCCCC(=O)NCc3ccccn3)CC2)cc1 reported_value=7.82
compound="O=S(=O)(NC1CCN(CC(O)COc2ccccc2-c2ccccc2)CC1)c1cccc(Cl)c1 (stereo unspecified)" reported_value=7.48
compound=O=C(C1CCCCC1)N(CCN1CCN(c2ccccc2)CC1)c1ccccn1 reported_value=6.70
compound="CCN(CCCCN1CCC2CCCCC2C1)S(=O)(=O)c1cccc2cccnc12 (stereo unspecified)" reported_value=7.89
compound=CCOc1ccccc1N1CCN(CCCCCn2cnc3sc(C)c(C)c3c2=O)CC1 reported_value=8.52

[a] O=C1c2ccccc2S(=O)(=O)N1CCCCCCN1CCN(c2cccc(C(F)(F)F)c2)CC1
[b] O=C1Nc2ccccc2C12CCN(CCN1CCN(c3ccccc3Cl)CC1)C2 (stereo unspecified)
Would you mind telling me which has the lower recorded pKi between a and b ? Pick one and reply with its label.
b
(b: 6.61, a: 7.24)

[A] NC(=O)[C@@H]1CCCN1C(=O)CCCCN1CCN(c2noc3ccccc23)CC1
[B] COc1c(Cl)ccc2c1C(C)NC(NCC(F)F)=N2 (stereo unspecified)
[C] O=S(=O)(c1ccccc1)C1(CCCN2CCCCC2)CCC1
[D] Cc1ccccc1C(=O)NCC1CCN(CCOc2cccc3c2CCCC3)CC1
Order the records by pKi, with each subsequent value no larger than the one before. Labels, ranked as asked.
B, A, D, C

[P] Cc1sc2nc(CCCCCN3CCN(Cc4ccccc4)CC3)[nH]c(=O)c2c1C
[Q] O=c1[nH]c(CCCCN2CCN(c3cccc(Cl)c3)CC2)nc2ccccc12
Exercise: compare P and Q ; which one has the greater pKi? Pick one and reply with its label.
Q
